Experiment: Example 4: dose response of FKBP constructs 160-255, Ec50, Ec90 and fold change (raw and normalized to mCherry)
Assay type: cell-based
Settings: fold change during initial analysis
Parameter: FC (fold change)

# molecule FKBP-223: FKBP13 DRD-AcGFP construct of Table 10 (protein, Description of sequence: Construct Name: FKBP-223; Mutation(s): Q72R Q84E A117W V85R DRD M54A P4W T25R) HCWIKSRKGDVLHAHYTGKLEDGREFDSSLPRNQPFVFSLGTGERIKGWDQGLLGMCEGEKRKLVIPSELGYGERGWPPKIPGGATLVFEVELLKIER ; its FC (fold change) = 52.5

Quick note, FC (fold change) for FKBP-184 (protein, Description of sequence: Construct Name: FKBP-184; Mutation(s): Q72R Q84E A117W V85R DRD M54A S36G V131G) HCPIKGRKGDVLHAHYTGKLEDGTEFDSSLPRNQPFVFSLGTGERIKGWDQGLLGMCEGEKRKLVIPSELGYGERGWPPKIPGGATLVFEGELLKIER landed at 1

For FKBP-192: FKBP13 DRD-AcGFP construct of Table 10 (protein, Description of sequence: Construct Name: FKBP-192; Mutation(s): Q72R Q84E A117W V85R DRD P75L) HCPIKSRKGDVLHMHYTGKLEDGTEFDSSLPRNQLFVFSLGTGERIKGWDQGLLGMCEGEKRKLVIPSELGYGERGWPPKIPGGATLVFEVELLKIER the molecule record lists FC (fold change) as 55.0
